SUBJECT OF TEST: p210 BCR-ABL (wild type) (Homo sapiens)
Sequence (P00519 27-1130 limits assumed): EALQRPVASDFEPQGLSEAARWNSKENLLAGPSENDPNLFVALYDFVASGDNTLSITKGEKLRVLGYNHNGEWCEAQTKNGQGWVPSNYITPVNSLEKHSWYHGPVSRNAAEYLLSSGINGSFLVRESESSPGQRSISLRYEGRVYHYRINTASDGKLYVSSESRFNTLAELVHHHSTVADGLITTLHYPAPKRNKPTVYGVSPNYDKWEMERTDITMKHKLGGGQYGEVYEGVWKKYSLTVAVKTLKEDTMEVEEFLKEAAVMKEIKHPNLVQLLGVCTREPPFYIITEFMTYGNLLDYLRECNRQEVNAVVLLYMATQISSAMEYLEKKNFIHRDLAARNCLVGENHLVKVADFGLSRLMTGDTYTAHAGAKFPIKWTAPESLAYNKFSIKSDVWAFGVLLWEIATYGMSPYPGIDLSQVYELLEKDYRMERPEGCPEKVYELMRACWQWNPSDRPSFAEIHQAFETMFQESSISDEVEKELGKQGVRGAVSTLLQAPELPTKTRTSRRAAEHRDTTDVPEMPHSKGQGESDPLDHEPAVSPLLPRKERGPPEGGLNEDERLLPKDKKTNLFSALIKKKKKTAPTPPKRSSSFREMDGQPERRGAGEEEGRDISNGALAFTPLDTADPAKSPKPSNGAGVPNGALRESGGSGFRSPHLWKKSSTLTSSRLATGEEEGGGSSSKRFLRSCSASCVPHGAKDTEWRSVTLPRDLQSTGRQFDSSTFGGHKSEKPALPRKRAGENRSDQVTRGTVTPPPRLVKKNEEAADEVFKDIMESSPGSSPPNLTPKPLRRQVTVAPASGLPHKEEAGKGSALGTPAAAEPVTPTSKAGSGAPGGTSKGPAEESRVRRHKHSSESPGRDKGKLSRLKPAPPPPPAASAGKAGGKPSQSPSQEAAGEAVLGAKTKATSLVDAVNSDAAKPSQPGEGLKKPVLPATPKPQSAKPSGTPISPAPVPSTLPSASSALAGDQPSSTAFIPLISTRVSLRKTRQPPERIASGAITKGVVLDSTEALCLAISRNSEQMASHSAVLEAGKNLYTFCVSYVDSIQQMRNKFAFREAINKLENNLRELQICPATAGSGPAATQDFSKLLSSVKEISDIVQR
ASSAY PROCEDURE: Western blot of phospho-c-ABL
pIC50: −log10 of the molar value.

{"COMPOUND": "Cc1cnc(Nc2ccc(N3CCN(C)CC3)cc2)nc1Nc1cccc(S(=O)(=O)NC(C)(C)C)c1 [TG101209]", "pIC50": 5.60}
